- testSystem: human S1P1 receptors (Homo sapiens, UniProt P21453)
- Sequence (P21453 whole entry): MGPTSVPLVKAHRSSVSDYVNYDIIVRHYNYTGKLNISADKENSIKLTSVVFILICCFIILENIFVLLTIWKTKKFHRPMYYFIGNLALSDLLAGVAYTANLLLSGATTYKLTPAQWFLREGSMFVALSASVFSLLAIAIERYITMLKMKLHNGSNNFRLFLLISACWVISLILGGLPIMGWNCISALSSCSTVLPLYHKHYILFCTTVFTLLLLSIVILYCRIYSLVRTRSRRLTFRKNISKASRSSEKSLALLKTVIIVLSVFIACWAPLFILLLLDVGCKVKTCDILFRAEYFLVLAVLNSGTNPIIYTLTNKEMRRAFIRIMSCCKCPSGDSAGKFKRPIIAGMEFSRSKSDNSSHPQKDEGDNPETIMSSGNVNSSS
- protocolDescription: S1P1R antagonist assay (fluorescent membrane potential dye, cAMP readout)
- conditionsUsed: HEK293 cells expressing human S1P1 receptors and CNG channel; 500 nM NECA; S1P1R agonist 10 nM; 90 minutes; read-out: EC50 or IC50 value
# IC50 annotations

- molecule: "O=C(Nc1ccc(Oc2ccc(F)cc2)cc1)[C@@H]1C[C@@H](Cc2ccccc2)CN1C(=O)Cc1ccccc1"
  IC50: "≤ 300 nM"
- molecule: "CCCCOCC(=O)N1C[C@H](Cc2ccccc2)C[C@H]1C(=O)Nc1ccc(Oc2ccc(F)cc2)cc1"
  IC50: "≤ 300 nM"
- molecule: "O=C(NC(COCc1ccccc1)C(=O)Nc1ccc(Oc2ccccc2)cc1)c1ccccc1-n1cccc1 (stereo not shown)"
  IC50: "> 1000 nM"
- molecule: "O=C(Nc1ccc(Oc2ccc(F)cc2)cc1)[C@@H]1C[C@@H](Cc2ccccc2)CN1C(=O)[C@H](O)c1ccccc1"
  IC50: "≤ 300 nM"
- molecule: "O=C(CSCc1ccccc1)NC(COCc1ccccc1)C(=O)Nc1ccc(Oc2ccccc2)cc1 (stereo not shown)"
  IC50: "> 1000 nM"
- molecule: "O=C(Nc1ccc(Oc2ccc(F)cc2)cc1)[C@@H]1C[C@@H](Cc2ccc(F)cc2)C(=O)N1C(=O)Cn1cncn1"
  IC50: "≤ 300 nM"
- molecule: "O=C(Nc1ccc(Oc2ccc(F)cc2)cc1)[C@@H]1C[C@@H](Cc2ccccc2)CN1C(=O)Cc1c(Cl)cccc1Cl"
  IC50: "≤ 300 nM"

---

# IC50 annotations
- testSystem: human S1P1 receptors (Homo sapiens)
- Construct: host or cells: HEK293
- protocolDescription: S1P1R antagonist assay (fluorescent membrane potential dye, cAMP readout)
- Type: cell-based
- conditionsUsed: HEK293 cells expressing human S1P1 receptors and CNG channel; 500 nM NECA; S1P1R agonist 10 nM; 90 minutes; read-out: EC50 or IC50 value
- Procedure: The S1P1R antagonist assay is a fluorescent membrane potential dye measurement assay, indicative of intracellular cAMP changes due to G protein-coupled receptor activation. […] Membrane depolarization is detected with a membrane potential dye. […] Assay plates were read with a PerkinElmer EnVision reader (Excitation 350 nm, Emission 590 nm) at time T=0 minutes, before compound addition and at time T=90 minutes. The signal was calculated as the ratio T90/T0. […]

- compound: "COC(=O)C1CCN(CC(=O)N[C@@H](COCc2ccccc2)C(=O)Nc2ccc(Oc3ccc(F)cc3)cc2)CC1"
  IC50: "300 to 1000 nM"
- compound: "CCOCC(=O)NC(COCc1ccccc1)C(=O)Nc1ccc(Oc2ccccc2)cc1 (stereo not drawn)"
  IC50: "> 1000 nM"
- compound: "CC(=O)N[C@@H](COCc1ccc(F)cc1)C(=O)Nc1ccc(Oc2ccc(F)cc2)cc1"
  IC50: "≤ 300 nM"
- compound: "O=C(Nc1ccc(Oc2ccc(F)cc2)cc1)[C@@H]1C[C@@H](Cc2ccccc2)CN1C(=O)Cn1nnc2ccccc21"
  IC50: "≤ 300 nM"
- compound: "COc1ccc(OC)c(CCC(=O)NC(COCc2ccccc2)C(=O)Nc2ccc(Oc3ccccc3)cc2)c1 (stereo not drawn)"
  IC50: "> 1000 nM"
- compound: "O=C(Nc1ccc(Oc2ccc(F)cc2)cc1)[C@@H]1C[C@@H](Cc2ccsc2)CN1C(=O)Cn1cncn1"
  IC50: "≤ 300 nM"
- compound: "O=C(Nc1ccc(Oc2ccc(F)cc2)cc1)[C@@H]1C[C@@H](CNCc2ccccc2)CN1C(=O)Cn1cncn1"
  IC50: "300 to 1000 nM"
- compound: "O=C(Nc1ccc(Oc2ccc(F)cc2)cc1)[C@@H]1C[C@@H](c2ccccc2)CN1C(=O)Cn1nccn1"
  IC50: "300 to 1000 nM"
- compound: "O=C(NC(COCc1ccccc1)C(=O)Nc1ccc(Oc2ccccc2)cc1)C1CC(=O)N(Cc2ccc(Cl)cc2)C1 (stereo not drawn)"
  IC50: "> 1000 nM"
- compound: "CC(=O)N[C@@H](COCc1ccccc1)c1nc2cc(Oc3ccc(F)cc3)ccc2[nH]1"
  IC50: "> 1000 nM"
- compound: "CS(=O)(=O)CC(=O)NC(COCc1ccccc1)C(=O)Nc1ccc(Oc2ccccc2)cc1 (stereo not drawn)"
  IC50: "> 1000 nM"
- compound: "O=C(NC(COCc1ccccc1)C(=O)Nc1ccc(Oc2ccccc2)cc1)c1ccc([N+](=O)[O-])o1 (stereo not drawn)"
  IC50: "≤ 300 nM"
- compound: "O=C(Cn1cncn1)N[C@@H](COCc1ccccc1Cl)C(=O)Nc1ccc(Oc2ccc(F)cc2)cc1"
  IC50: "≤ 300 nM"
- compound: "Cc1ccc(C[C@@H]2C[C@@H](C(=O)Nc3ccc(Oc4ccc(F)cc4)cc3)N(C(=O)Cn3ccnn3)C2)cc1"
  IC50: "≤ 300 nM"
- compound: "O=C(NC(COCc1ccccc1)C(=O)Nc1ccc(Oc2ccccc2)cc1)c1cnccn1 (stereo not drawn)"
  IC50: "> 1000 nM"
